Value source: paper PMC9502272

Mean value WT reference
biological target: Oatp1b2 (Mus musculus, UniProt Q9JJL3); experiment: Untargeted metabolomics of plasma from untreated wild-type and Oatp1b2(−/−) mice; conditions: plasma of untreated wild-type mice; raw area counts rescaled to median = 1
Sequence (Q9JJL3 whole entry): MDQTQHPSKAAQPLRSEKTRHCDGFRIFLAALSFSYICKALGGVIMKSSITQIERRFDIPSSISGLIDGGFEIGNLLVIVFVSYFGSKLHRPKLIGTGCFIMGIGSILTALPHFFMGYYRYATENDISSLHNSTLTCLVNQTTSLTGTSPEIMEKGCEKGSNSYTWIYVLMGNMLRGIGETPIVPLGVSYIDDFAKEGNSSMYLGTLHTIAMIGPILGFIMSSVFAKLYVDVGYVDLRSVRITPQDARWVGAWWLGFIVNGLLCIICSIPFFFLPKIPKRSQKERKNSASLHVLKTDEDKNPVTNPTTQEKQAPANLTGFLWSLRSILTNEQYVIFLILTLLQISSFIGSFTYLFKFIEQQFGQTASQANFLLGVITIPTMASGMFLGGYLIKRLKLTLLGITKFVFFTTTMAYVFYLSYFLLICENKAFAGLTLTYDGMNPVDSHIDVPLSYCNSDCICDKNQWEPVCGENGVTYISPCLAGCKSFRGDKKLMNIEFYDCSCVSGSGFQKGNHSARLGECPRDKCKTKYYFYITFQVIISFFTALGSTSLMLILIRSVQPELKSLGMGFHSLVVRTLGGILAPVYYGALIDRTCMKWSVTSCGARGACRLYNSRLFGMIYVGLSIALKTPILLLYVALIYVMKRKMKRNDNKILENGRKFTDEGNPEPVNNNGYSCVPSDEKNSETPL

Check out these entries, answers already filled in.
CCCCCC/C=C\CCCCCCCC(=O)OC[C@@H](O)COP(=O)([O-])OCC[N+](C)(C)C : .666
CCCCC/C=C\C/C=C\CCCCCCCC(=O)O[C@H](CO/C=C\CCCCCCCCCCCCCC)COP(=O)(O)OCCN : .862

Pending compound:
Task: Find the recorded Mean value WT belonging to CCCCCCC=CCCCCCCCC(=O)OC(CC(=O)[O-])C[N+](C)(C)C (stereo not shown) and report it.
Result: .943
